Every entry's value here was drawn from ChEMBL document CHEMBL3098118.

# Test system: Klebsiella pneumoniae
# method_description: Antibacterial activity against Klebsiella pneumoniae MTCC 109 by agar streak dilution method
# Assay type: functional
observable: log10(MIC) (log10 of the value in µg/mL)
// do not treat as linear: log10 of MIC, unit µg/mL

Input line: Field request: log10(MIC) | item: CCOc1ccc2nc(NC(=O)CSc3nnc(-c4ccc5ncccc5c4)n3-c3cccc4ccccc34)sc2c1
Output line: 2.00

Input line: What about this molecule? O=C(CSc1nnc(-c2ccc3ncccc3c2)n1-c1cccc2ccccc12)Nc1nc2ccccc2s1
Output line: 2.70

Input line: Moving on to the next molecule: CC(=O)Nc1ccc2nc(NC(=O)CSc3nnc(-c4ccc5ncccc5c4)n3-c3cccc4ccccc34)sc2c1
Output line: 2.40

Input line: Do the same for CC1(C)S[C@@H]2[C@H](NC(=O)[C@H](N)c3ccccc3)C(=O)N2[C@H]1C(=O)O [AMPICILLIN] please
Output line: 1.40

----------
# Tested on: Klebsiella pneumoniae
# method_description: Antibacterial activity against Klebsiella pneumoniae MTCC 109 by agar streak dilution method
# Assay type: functional
This listing pairs compounds with measured MIC.
Your answer is read as µg/mL, so omit the unit and give the number.

# example entries with known answers
Input line: Looking for the measured MIC of N#Cc1ccc2nc(NC(=O)CSc3nnc(-c4ccc5ncccc5c4)n3-c3cccc4ccccc34)sc2c1 , can you help?
Output line: 50

Input line: What do you get for O=C(CSc1nnc(-c2ccc3ncccc3c2)n1-c1cccc2ccccc12)Nc1nc2ccc([N+](=O)[O-])cc2s1 ?
Output line: 50

Input line: And for O=C(CSc1nnc(-c2ccc3ncccc3c2)n1-c1cccc2ccccc12)Nc1nc2ccc(I)cc2s1 ?
Output line: 100

Input line: // repeat for O=C(CSc1nnc(-c2ccc3ncccc3c2)n1-c1cccc2ccccc12)Nc1nc2ccc(Cl)cc2s1 and report
Output line: 62.5

Input line: Note, next up: Cc1ccc2nc(NC(=O)CSc3nnc(-c4ccc5ncccc5c4)n3-c3cccc4ccccc34)sc2c1
Output line: 500

Input line: What about this compound? COc1ccc2nc(NC(=O)CSc3nnc(-c4ccc5ncccc5c4)n3-c3cccc4ccccc34)sc2c1
Output line: 62.5

Input line: Try the compound O=C(CSc1nnc(-c2ccc3ncccc3c2)n1-c1cccc2ccccc12)Nc1nc2ccc(Br)cc2s1
Output line: 100

Now consider the entry below.
Input line: MIC lookup needed for O=C(CSc1nnc(-c2ccc3ncccc3c2)n1-c1cccc2ccccc12)Nc1nc2ccc(F)cc2s1 , thanks.
Output line: 62.5
